Attribution: patent US20150197564A1

Molecular target: T1, hANGPTL3(17-169)-mFc (human)
T1 construct: also called N-terminal coiled-coil domain of hANGPTL3 with a C-terminal mouse Fc fusion
T1 chain: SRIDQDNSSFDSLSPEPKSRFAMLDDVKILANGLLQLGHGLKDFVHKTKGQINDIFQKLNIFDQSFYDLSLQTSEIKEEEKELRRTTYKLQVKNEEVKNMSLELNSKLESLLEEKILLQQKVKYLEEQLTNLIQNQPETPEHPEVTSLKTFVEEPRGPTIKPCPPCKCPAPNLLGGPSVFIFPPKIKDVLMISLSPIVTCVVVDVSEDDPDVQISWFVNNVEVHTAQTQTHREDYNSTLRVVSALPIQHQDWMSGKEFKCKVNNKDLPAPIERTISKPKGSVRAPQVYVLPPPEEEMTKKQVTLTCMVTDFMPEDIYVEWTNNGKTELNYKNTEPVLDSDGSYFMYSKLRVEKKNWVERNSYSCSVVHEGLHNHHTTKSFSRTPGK
Assay: SPR Biacore, antigen captured, 25C, pH 7.4, HBS-EP
Value type: kon (M⁻¹ s⁻¹)
Number only, in M⁻¹ s⁻¹; omit the unit.

Some entries whose results are on file:
# Binder, kon (M⁻¹ s⁻¹)
records = [
    ("H4H1282P (antibody, IgG4, V domains shown) VH: EVQLVQSGGGVVQPGRSLRLSCAASGFTFSNYGMHWVRQAPGKGLEWVAVVWYDGDNKYYADSVKGRFTISRDNSKNTLYLQMNSLRAEDTAVYYCARDIITSRPTLDYWGQGTLVTVSS VL: DIQLTQSPSFLSASVGDRVTITCWASQGINSYLAWYQQKPGKAPKLLIYPASTLQSGVPSRFSGSGSGTEFTLTISSLQPVDFATYYCQQLNSYPLTFGGGTKVEIKR", "1.28e+06"),
    ("H4H1292P (antibody, IgG4, V domains shown) VH: QVQLVESGGGLVKPGGSLRLSCAASGFTFSDYYMSWIRQAPGKGLEWVSYISSSGSTIYYADSVKGRFTISRDNAKNSLYLQMNSLRAEDTAVYYCARDSSQLGFDYWGQGTLVTVSS VL: DIQMTQSPSSLSASVGDRVTITCRASQSIISFLNWYQQKPGKAPKLLIYTASSLQSGVPSRFSGSGSGTDFTLTISSLQPEDFATYYCQQTYSNPLTFGGGTKVEIKR", 686000),
    ("H4H1263S (antibody, IgG4, V domains shown) VH: QVQLVQSGGGVVQPGRSLRLSCAASGFTFSTYGMHWVRQAPGKGLEWMAVISFDRGNKYYADSVKGRFTISRDNSKNTLYLQMNSLRAEDTAVYYCAKGGGSGTFYYYYGMDVWGQGTTVTVSS VL: DIQMTQSPSSVSASVGNRVTITCRASQGISSWLAWYHQKPGKVPKVLIYAASSLQSGVPSRFSGSGSGTDFTLTISSLQPEDFATYYCQQANSFPFTFGPGTKVEIKR", 677000),
]

Turning now to a further record.
So for H4H1248P (antibody, IgG4, V domains shown) VH: QVQLVESGGGVVQPGRSLRLSCAASGFTFSSYGMHWVRQAPGKGLEWVAVISYDGSNKYYADSVKGRFTISRDNSKNTLYLQMNSLRAEDTAVYYCAKVGATTFYYYYGMDVWGQGTTVTVSS VL: DIQMTQSPSSVSAFVGDRVTITCRASQGISSWLAWYQQKPGKAPKLLIYAASSLQSGVPSRFSGSGSGTDFTLTISSLQPEDFATYYCQKANSFPFTFGPGTKVEIK , the logged kon turned out to be 457000
